All values here come from the nanobody polyreactivity screen of Harvey et al. (2022).

Assay: yeast display, Sf9 membrane polyspecificity reagent, FACS + sequencing; frameworks hold sequencing errors
assay_metric: polyreactivity (PSR sort gate)

Examples from the recorded data:
{"columns": ["polymer_sequence", "polyreactivity (PSR sort gate)"],
 "data": [
  ["QVQLVESGGGLVQAGGSLRLSCAASGRTLLLNTMGWYRQAPGKERELVAAISWRDGSTYYADSVKGRFTISRDNAKNTVYLQMNSLKPEDTAVYYCNARLSGRSPYDLRFDYWGQGTQVTVSS", "low polyreactivity"],
  ["QVQLVESGGGLVQAGGSLRLSCAASGRTFSYYAMGWYRQAHGKERELVAAITSSGGRTTYADSVKGRFTISRDNAKNTVYLQMNSLKPEDTAVYYCNVVRWTLKYGYWGQGTQVTVSS", "high polyreactivity"],
  ["QVQLVESGGGLVQAGGSLRLSCAASGRTFLVYTMGWYRQAPGKERELVAAISWSDGSTYYADSEKGRFTISRDNAKNTVYLQMNSLKPEDTAVYYCAARRTGYLYRYGYWGQGTQVTVSS", "low polyreactivity"],
  ["QVQLVESGGGLVQAGGSLRLSCAASGSTFSRYTMGWYRQAPGKERELVAAIRRSGASTYYADSVKGRFTISRDNAKITVYLQMNSLKPEDTAVYYCAVGRYRYGYWGHGTQVTVSS", "high polyreactivity"]
]}

// next entry
## Task Look up polyreactivity (PSR sort gate): `QVQLVESGGGLVQAGGSLRLSCAASGRTFDYYAMGWYRQAPGKERELVAAITKDGGSTYYADSVKGRFTISRDNAKNTVYLQMNSLIPEDTAVYYCAADGPPQYYDPIHYDYWGQGTQVTVSS`
## Result low polyreactivity
